- Test system: HepG2
- Protocol notes: cells
- Type: functional, cell-based
- Conditions: Homo sapiens, HepG2, 24 h
Hi there, I'd appreciate the recorded IC50 for every entry that follows.

Record for O=C1CCSC(c2ccc([N+](=O)[O-])cc2)N1Nc1nc2ccccc2[nH]1 (stereo unspecified) under target or system HepG2: IC50 reported as 55.8 µM

Summary line: O=C1CCSC(c2ccccc2Cl)N1Nc1nc2ccccc2[nH]1 (stereo unspecified) , HepG2, reported IC50 = 13.6 µM

Tested on HepG2: COc1ccc(C2SCCC(=O)N2Nc2nc3cc(C)c(C)cc3[nH]2)cc1 (stereo unspecified) . Observed IC50: 68.3 µM

Let me check: COc1ccc(C2SCCC(=O)N2Nc2nc3cc(Cl)c(Cl)cc3[nH]2)cc1 (stereo unspecified) , system HepG2, measured IC50 is 68.7 µM

Per the reported HepG2 data, COc1ccc(C2SCCC(=O)N2Nc2nc3ccccc3[nH]2)cc1 (stereo unspecified) has IC50 of 8.95 µM

Measured IC50 for this entry O=C1CCSC(c2ccc(Cl)cc2)N1Nc1nc2ccccc2[nH]1 (stereo unspecified) on HepG2: 53.3 µM

* * *

For reference, pIC50 measured on Histone-lysine N-methyltransferase EZH2 (Homo sapiens, UniProt Q15910, Y641F):
FYI, pIC50 means -log10 of a concentration in mol per litre.

Looking up C=CCC1(S(=O)(=O)N2CCc3c(C(=O)NCc4c(C)cc(C)[nH]c4=O)cc(-c4ccc(N5CCN(C)CC5)nc4)cc32)CC1 , I see its pIC50 listed as 5.59

Per the record, CCN(c1cc(C#CC2CCN(C)CC2)cc(C(=O)NCc2c(C)cc(C)[nH]c2=O)c1C)C1CCOCC1 has pIC50 of 8.08

Form field pIC50, entry C=CCC1(S(=O)(=O)N2CC(C)c3c(C(=O)NCc4c(C)cc(C)[nH]c4=O)cc(-c4ccc(N5CCN(C)CC5)nc4)cc32)CC1 (stereo unspecified) : 5.82

Recorded pIC50 (compound C=CCC1(S(=O)(=O)n2nc(C)c3c(C(=O)NCc4c(C)cc(C)[nH]c4=O)cc(-c4ccc(N5CCN(C)CC5)nc4)cc32)CC1 ): 6.23

Kindly note the recorded pIC50 for CCCc1cc(C)[nH]c(=O)c1CNC(=O)c1cc(-c2ccc(N3CCNCC3)cc2)cc2c1ccc(=O)n2C(CC)CC , which is 8.05

C=CCC1(S(=O)(=O)n2cc(C)c3c(C(=O)NCc4c(OC)cc(C)[nH]c4=O)cc(-c4ccc(N5CCN(C)CC5)nc4)cc32)CC1 has a reported pIC50 of 8.30

Item: COC1CN([C@H]2CC[C@H]([C@@H](C)c3sc4c(c3C)C(=O)N(Cc3c(C)cc(C)[nH]c3=O)CCC4)CC2)C1 | pIC50: 9.04

Value of pIC50 reported for the compound CCCc1cc(C)[nH]c(=O)c1CNC(=O)c1cc(-c2ccc(N3CCNCC3)nc2)cc2c([C@H](C)CC)ncn12 is 8.09

pIC50 in this record for Cc1cc(-c2ccc(N3CCN(C)CC3)nc2)c2ccc(C(=O)NCc3c(OC(C)C)cc(C)[nH]c3=O)c(C)c2n1 : 7.89

The measured pIC50 associated with CCC(C)n1cc(C)c2c(C(=O)NCC3=C(O)NN(CC)C3C)cc(-c3ccc(N4CCNCC4)nc3)cc21 (stereo unspecified) reads 5.83

pIC50 measured on COC1CN([C@H]2CC[C@H]([C@@H](C)c3scc(C(=O)NCc4c(C)cc(C)[nH]c4=O)c3C)CC2)C1 = 9.03

* * *

- Study target: Protein cereblon/Histone-lysine N-methyltransferase EZH2 (Homo sapiens, UniProt Q15910+Q96SW2)
- Sequence (Q15910 whole entry): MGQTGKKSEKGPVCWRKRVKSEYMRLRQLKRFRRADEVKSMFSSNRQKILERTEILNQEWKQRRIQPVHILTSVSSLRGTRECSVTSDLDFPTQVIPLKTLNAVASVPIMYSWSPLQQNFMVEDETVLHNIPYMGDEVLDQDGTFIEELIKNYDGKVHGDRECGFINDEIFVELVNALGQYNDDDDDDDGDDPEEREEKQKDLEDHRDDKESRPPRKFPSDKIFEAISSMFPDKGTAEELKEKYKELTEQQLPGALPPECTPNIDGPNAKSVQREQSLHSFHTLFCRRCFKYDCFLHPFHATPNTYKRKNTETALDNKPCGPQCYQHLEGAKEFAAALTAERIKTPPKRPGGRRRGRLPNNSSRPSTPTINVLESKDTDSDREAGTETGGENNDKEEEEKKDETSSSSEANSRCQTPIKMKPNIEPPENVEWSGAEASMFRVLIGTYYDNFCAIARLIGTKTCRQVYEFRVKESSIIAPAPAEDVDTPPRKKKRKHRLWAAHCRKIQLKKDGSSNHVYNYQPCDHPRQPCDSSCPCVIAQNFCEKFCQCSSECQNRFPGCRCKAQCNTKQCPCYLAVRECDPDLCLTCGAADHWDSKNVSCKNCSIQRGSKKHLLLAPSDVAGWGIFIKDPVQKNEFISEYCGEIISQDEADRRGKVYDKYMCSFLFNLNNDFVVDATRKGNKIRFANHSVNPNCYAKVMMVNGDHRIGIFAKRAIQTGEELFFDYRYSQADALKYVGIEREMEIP
- Sequence (Q96SW2 whole entry): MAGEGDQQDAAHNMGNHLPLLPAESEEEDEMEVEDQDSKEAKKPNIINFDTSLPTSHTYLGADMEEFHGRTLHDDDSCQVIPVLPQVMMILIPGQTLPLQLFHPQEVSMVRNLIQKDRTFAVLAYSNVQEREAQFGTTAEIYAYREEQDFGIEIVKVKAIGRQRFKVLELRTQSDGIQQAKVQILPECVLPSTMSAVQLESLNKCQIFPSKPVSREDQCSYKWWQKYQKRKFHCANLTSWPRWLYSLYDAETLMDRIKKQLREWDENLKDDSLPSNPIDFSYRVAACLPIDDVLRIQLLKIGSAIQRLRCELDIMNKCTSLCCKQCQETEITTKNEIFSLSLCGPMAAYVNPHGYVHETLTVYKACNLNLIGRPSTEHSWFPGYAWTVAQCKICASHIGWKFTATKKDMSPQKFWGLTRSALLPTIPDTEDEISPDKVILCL
- Type: cell-based, OCILY7
Measurement name: IC50 (nM)
Only the number, expressed in nM, is required.

// sample CCN(c1cc(-c2ccc(CN3CCN(C(=O)CCCCCNc4cccc5c4C(=O)N(C4CCC(=O)NC4=O)C5=O)CC3)cc2)cc(C(=O)NCc2c(C)cc(C)[nH]c2=O)c1C)C1CCOCC1 (configuration not stated) , its IC50 was 100

The recorded IC50 for CCN(c1cc(-c2ccc(CN3CCN(C(=O)CCCCCCCNc4cccc5c4C(=O)N(C4CCC(=O)NC4=O)C5=O)CC3)cc2)cc(C(=O)NCc2c(C)cc(C)[nH]c2=O)c1C)C1CCOCC1 (configuration not stated) is 60

* * *

- Study target: Histone-lysine N-methyltransferase EZH2 (Homo sapiens, UniProt Q15910)
- Sequence (Q15910 whole entry): as the sequence (Q15910 whole entry) above
IC50 strictly under 1 nM means True; at 1 nM or over means False.

IN: Determine whether this compound shows IC50 lower than 1 nM (ties excluded): COC1CN([C@H]2CC[C@H]([C@@H](C)c3sc4c(c3C)C(=O)N(Cc3c(C)cc(C)[nH]c3=O)CCC4)CC2)C1
OUT: True

IN: Is IC50 strictly under 1 nM for the entry CCCc1cc(C)[nH]c(=O)c1CNC(=O)c1cc(-c2ccc(N3CCNCC3)nc2)cc2c([C@H](C)CC)ncn12 ?
OUT: False

IN: Criterion: IC50 strictly below 1 nM. Is it met by CCC(C)n1cc(C)c2c(C(=O)NCC3=C(O)NN(CC)C3C)cc(-c3ccc(N4CCNCC4)nc3)cc21 (stereo not drawn) ?
OUT: False

IN: Field: below-cutoff. Rule: recorded IC50 strictly less than 1 nM. Subject: COc1cc(C)[nH]c(=O)c1CNC(=O)c1c(C)n([C@H](C)C2CCN(CC(C)(F)F)CC2)c2ccccc12
OUT: True

IN: Say whether its IC50 is strictly beneath 1 nM. Entry: COC1CN([C@H]2CC[C@H]([C@@H](C)c3scc(C(=O)NCc4c(C)cc(C)[nH]c4=O)c3C)CC2)C1
OUT: False

IN: I'd appreciate it if you could check whether Cc1cc(-c2ccc(N3CCN(C)CC3)nc2)c2ccc(C(=O)NCc3c(OC(C)C)cc(C)[nH]c3=O)c(C)c2n1 has IC50 smaller than 1 nM.
OUT: False

IN: Regarding CCCc1cc(C)[nH]c(=O)c1CNC(=O)c1cc(-c2ccc(N3CCNCC3)cc2)cc2c1ccc(=O)n2C(CC)CC , kindly confirm whether its IC50 is beneath 1 nM.
OUT: False

* * *

Consider the following molecules; for each one, report its pIC50.
- System: SU-DHL-6
- Protocol notes: cells
- Format: functional, cell-based
- Conditions: Homo sapiens
Please report pIC50 as the negative decimal logarithm of the molar concentration, giving only the number.

The recorded pIC50 for entry [2H]C([2H])([2H])Sc1cc(C)[nH]c(=O)c1CNC(=O)c1c(C)n([C@H](C)C2CCC(OC)CC2)c2ccc(-c3cnn(C)c3)cc12 (stereo not given in full) equals 7.15

The measured pIC50 associated with CCN(c1cc(-c2ccc(CN3CCOCC3)cc2)cc(C(=O)NCc2c3c(c(C)[nH]c2=O)CCCC3)c1C)C1CCOCC1 reads 4.70

The measured pIC50 associated with [2H]C([2H])(NC(=O)c1c(C)n([C@H](C)C2CCC(OC)CC2)c2ccccc12)c1c(SC)cc(C)[nH]c1=O (stereo not given in full) reads 8.00

* * *

Give measured IC50 for each item. Keep answers brief.

Lab entry: Histone-lysine N-methyltransferase EZH2 (Homo sapiens) assay, compound CCN(c1cc(-c2ccc(CN3CCOCC3)cc2)cc(C(=O)NCC2C(=O)NC(C)c3cccc(F)c32)c1C)C1CCOCC1 (stereo not drawn) , IC50 = 500 nM

Histone-lysine N-methyltransferase EZH2 (Homo sapiens) assay, compound COc1cc(C)[nH]c(=O)c1CNC(=O)c1c(C)n(C(C)C2CCN(C)C(C(F)(F)F)C2)c2ccccc12 (stereo not drawn) , recorded IC50 = < 400000 nM

Summary line: COC1CN([C@H]2CC[C@H]([C@@H](C)c3sc4c(c3C)C(=O)N(Cc3c(C)cc(C)[nH]c3=O)CCC4)CC2)C1 , Histone-lysine N-methyltransferase EZH2 (Homo sapiens), reported IC50 = 2.65 nM

* * *

- Study target: UniProt Q15910
Measurement name: IC50

So for [2H]C([2H])([2H])Sc1cc(C)[nH]c(=O)c1CNC(=O)c1c(C)n([C@H](C)C2CCC(OC)CC2)c2ccc(-c3cnn(C)c3)cc12 (stereo partly specified) , the logged IC50 turned out to be 0.4 nM

response.value for [2H]C([2H])(NC(=O)c1c(C)n([C@H](C)C2CCC(OC)CC2)c2ccccc12)c1c(SC)cc(C)[nH]c1=O (stereo partly specified) (field: IC50) = 0.54 nM

Documented IC50 of Cc1cc(C)c(CNC(=O)c2cc(-c3ccc(N4CCN(CCOCCC(=O)Nc5cccc6c5C(=O)N(C5CCC(=O)NC5=O)C6=O)CC4)nc3)c3c(cnn3C(C)C)c2)c(=O)[nH]1 (stereo unspecified) : 7 nM

Record CCCc1cc(C)[nH]c(=O)c1CNC(=O)c1cc(-c2ccc(N3CCOCC3)nc2)c2ccn(C(C)C)c2c1C , field IC50: 0.01 nM

Lab note: Nc1nccc2c1ncn2[C@@H]1C=C(CO)[C@@H](O)[C@H]1O gave IC50 of 80 nM

Sample CCN(c1cc(Cl)cc(C(=O)NCc2c[nH]c(C)cc2=O)c1C)[C@H]1CC[C@H](N(C)C)CC1 ; IC50 observed: 3 nM

// IC50 value for CCCc1cc(C)n(C)c(=O)c1CN(C)C(=O)c1cc(-c2ccc(N3CCN(C(C)C)CC3)nc2)cc2c1CNN2C(C)C : 13000 nM

The recorded IC50 for CCN(c1cc(Cl)cc2c1C/C=C/CCc1cc(C)[nH]c(=O)c1CNC2=O)C1CCC(F)(F)CC1 is 16 nM

Recorded result, CCN(c1cc(-c2ccc(CN3CCOCC3)cc2)cc(C(=O)NCc2c(Cl)cc(C)c[n+]2[O-])c1C)C1CCOCC1 , IC50: < 100 nM

For CC1=CCOc2c(Br)cc(C(=O)NCc3c(C)cc(C)[nH]c3=O)cc2C1 the molecule record lists IC50 as > 1000 nM

The measured IC50 associated with CCN(c1cc(Br)cc(C(=O)NCc2c[nH]c(C)cc2=O)c1C)[C@H]1CC[C@H](N(C)C)CC1 reads 40 nM

# molecule Cc1cc(C)c(CNC(=O)c2cc3c(c(-c4ccc(N5CCNCC5)cc4)c2)OC(C)(C)C3)c(=O)[nH]1 ; its IC50 = < 500 nM

According to the records, this molecule C=CC(=O)Nc1nn(Cc2ccccc2)c(C)c1C(=O)NCc1c(C)cc(C)[nH]c1=O displays IC50 of 5240 nM

What the record says about C=CC(=O)Nc1nn(Cc2ccc(-c3ccccc3)cc2)c(C)c1C(=O)NCc1c(C)cc(C)[nH]c1=O : IC50 is 109 nM

Briefly, IC50 measured for Cc1cc2c(c(=O)[nH]1)CNC(=O)c1cc(Cl)cc3c1c(cn3C(C)C)/C=C/CC2 : 40 nM

C=CC(=O)Nc1nn(C(C)c2ccccc2)c(C)c1C(=O)NCc1c(C)cc(C)[nH]c1=O (stereo unspecified) yielded IC50 of 64 nM
